# study-target: SARS-CoV-2 spike S2 protein (SARS-CoV-2, UniProt P0DTC2 686-1213)

| binder | koff [s⁻¹] |
| --- | --- |
| AB-009291 (antibody, V domains shown) VH: EVHLLESGGGLVQPGGSLRLSCAASGFTFTTYAMFWVRQAPGKGLEWVSAINAGGAKTHYADSVRGRFTISRDNSKSTLYLHMDRLRVGDTAIYYCAKVPSYIYDSRDDYLDFWGQGTLVTVSS VL: EIVLTQSPATLSLSPGERATLSCRASQSVSSYLAWYQQRPGQAPRLLIYDASSRATGIPVRFSGSGSGTDFTLTISSLEPEDFAVYYCQQRSDWPLLTFGGGTKVEIK | 3.28e-07 |
| AB-009263 (antibody, V domains shown) VH: EVQLVQSGAEVKKPGESLRISCQSSGYSFSTYWIAWVRQTPEKGLEWMGIIYPGDSDTRYSPTFQGQVTISADTSISTAYLQWSSLKASDTAVYYCARFRFNWLLSYYYYYMDVWGKGTTVSVSS VL: QSALTQPDSVSGSPGQSIAISCTGTSRDVGGYNYVSWYQQHPGKAPKLMIYEVSNRPSGVSDRFSGSKSDNTASLTISGLQGDDEANYYCSSYTDSGTLVFGGGTKVTVL | 3.82e-07 |
